Listing of recorded Kd by entry.
Tgt: BoNT/B3 (Clostridium botulinum)
Method summary: KinExA flow fluorimetry, IgG in solution
Enter your answer as a number in nM; do not include the unit.

In the examples that follow, each entry is paired with its recorded Kd.
* 1B18 IgG (antibody, V domains shown) VH: EVQLVQSGGGLVQPGGSRRLSCAASGFYFNAYWMTWVRQAPGKGLEWVANINLDGTEIYYLDSVKGRFTVSRDNVKNSVFLQMSSLRVEDTAVYFCARLEWGGRNGWVSPWGQGTLVTVSS VL: DVVMTQSPSSVSASVGDRVTITCRASQSISSYLNWYQQRPGKAPKLLIFAASSLQSAVPSRFSGSGSGTDFTLTISSLQPEDFATYYCQQSYSTPPTFGQGTKVEIKR | 0.972
* 1B10.1 IgG (antibody, V domains shown) VH: QVQLVESGGGVVQPGRSLRLSCAASGFTFSHYGMHWVRQSPGKGLEWVAVIWYDGRNPYYAASVKGRFTISRDNDKNTLYLQMNSLRAEDTAVYYCVKDLTRFHDTTFGVFEMWGPGTTVTVSS VL: EIVLTQSPSFVSASVGDRVTITCRASQGISSWLAWYQQKPGKAPKLLIYAASSLQSGVPSRFSGSGSGTEFTLTISSLQPDDFATYYCQQYSSLYTFGQGTKVDIKR | 1.2
* B11E8 IgG (antibody, V domains shown) VH: EVQLVQSGGGVVQPGRSLRLSCAASGFIFRTYGMHWVRQAPGKGLEWVAFVSSDGNNKFYSDSVKGRFTISRDNAKNTLYLQMNSLETEDTAMYYCAKDRYPIDCSGGSCFSYGMDVWGQGTTVTVSS VL: EIVLTQSPATLSVSPGERATLSCRASQSVSKFLAWYQQKRGQAPRLLIYGASTRATGIPARFSGSGSGTEFALTISSLQSEDFADYYCQQYDNWPITFGQGTRLEIKR | 0.0156
* 1B22 IgG (antibody, V domains shown) VH: QVQLQESGSRLVKPSQTLSLTCGVSGGSISSSSYSWSWIRQTPGKGLEWIGYIYHSGSTYYNPSLKSRVTMSVDKSRNQFSLNMSSVTAADTAVYYCARTAFYYENTGPIRCYLDFWGQGTLVTVSS VL: DIQMTQSPSTLSASIGDRVTISCRASQSIQSWLAWYQQRPGEAPKLLIYSASTLQTGVPSRFSGSGSGTDFTLTISSLQPEDFATYYCQQYNSYPLTFGQGTKLEIK | 0.221
* B12.1 IgG (antibody, V domains shown) VH: QVNLRESGGGVVQPGRSLRLSCAASGFTFSSYALHWVRQTPGKGLEWVALISYDGSNKYYADSVKGRFTISRDNSKNMLYLQMNSLRAEDTAVYYCAKDRSHYGDYVGYLDYWGQGTLVTVSS VL: AYVLTQPPSVSVAPGKTAAITCEGNNVGNKNVHWYQQRPGQAPVLVVHDDSDRPSGIPERFSGSNSGNTATLTINRVEAGDEADYYCQVWDSSSAQWVFGGGTKLTVLG | 0.0462

Kd measured on 2B25.1 IgG (antibody, V domains shown) VH: QVQLQESGPGLVKPSQTLSLSCSVSGASITSGTFYWSWIRQHPGKDLEWIGYIYYSGTTYYNPSLKSRVTLSVDTSKNQFSLKVTSLTAADTAVYHCARGVPIYDSSGTYRGTYFDYWGQGTLVTVSS VL: ESVLTQPPSVSAAPGQKVTISCSGSSSNIGNNYVSWYQQLPGTAPKLLIYDNNRRPSGIPDRFSGSKSGTSATLGITGLQTGDEADYYCGTWDSSLSEVVFGGGTKVTVLG = 0.0177

// recorded Kd for 2B23 IgG (antibody, V domains shown) VH: EVQLLESGGGLVQPGGSLRLSCAASGFTFSNYPMSWVRQAPGKGLAWVSSLTASGDNTFYADSVKGRFTISRDNSNNTLYLQMHSLRAEDTAVYYCAKALVGRYDISTGYYRPVMDSWGQGTLVTVSS VL: DIQMTQSPPSLSASVGDRVTITCRTSQGFTSALAWYQQKPGEPPKLLIYDASKLESGVPSRFSGSGSGTNFALTISSLQPEDFATYFCQQSNSYPLTFGGGTKVEIKR : 0.048
